Experiment: CCTE_Shafer_MEA_acute_network_burst_percentage: CCTE's Neural Acute Assay for Percentage of Network Bursts, Shafer Lab (AID 2284022);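 further: curves fitted for loss so actives lower network burst percentage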;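 on outcome: rat primary cortical neuron networks on multiwell MEA recorded 40 min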
Procedure: CCTE_Shafer_MEA_acute assay is conducted using Axion Biosystems 48 well microelectrode array (MEA) plates and Maestro recording system. Each well of the MEA plate contains a grid of 16 microelectrodes embedded in the culture surface. Electrically active cells, such as neurons, can be cultured over the electrodes, and electrical activity in these cells can be recorded extracellularly. […]
Active and inactive are the calls of the source. How the source made its calls: active means hit-call score of the fitted dose curve at least 0.9, where 1 is the maximum; inactive means score below 0.9.
Select the matching outcome among yes (active), no (inactive)

The examples below pair each entry with its known result.
O=C(Nc1ccc2c(O)c(N=Nc3ccc(N=Nc4ccc(S(=O)(=O)O)cc4)cc3)c(S(=O)(=O)O)cc2c1)c1ccccc1 ... no
CC1(C)CCC[C@]2(C)[C@H]3CCO[C@]3(C)CC[C@@H]12 ... no
CN(C)C(=S)SC(=S)N(C)C ... yes
O=CN1CCOCC1 ... no
CC(CN=Cc1ccccc1O)N=Cc1ccccc1O (stereo unspecified) ... no

Turning to the following molecule.
Challenge: Entry CCOC(=O)C(C#N)=C(c1ccccc1)c1ccccc1 : call = ?
Response given: no

###

biological target: Estrogen receptor (Homo sapiens) (UniProt P03372); test: OT_ERa_GFPERaERE_0480: Odyssey Thera (OT) 8-hour HeLa Transcription Induction Assay for Estrogen Receptor (AID 2283381)
Sequence (P03372 whole entry, looked up): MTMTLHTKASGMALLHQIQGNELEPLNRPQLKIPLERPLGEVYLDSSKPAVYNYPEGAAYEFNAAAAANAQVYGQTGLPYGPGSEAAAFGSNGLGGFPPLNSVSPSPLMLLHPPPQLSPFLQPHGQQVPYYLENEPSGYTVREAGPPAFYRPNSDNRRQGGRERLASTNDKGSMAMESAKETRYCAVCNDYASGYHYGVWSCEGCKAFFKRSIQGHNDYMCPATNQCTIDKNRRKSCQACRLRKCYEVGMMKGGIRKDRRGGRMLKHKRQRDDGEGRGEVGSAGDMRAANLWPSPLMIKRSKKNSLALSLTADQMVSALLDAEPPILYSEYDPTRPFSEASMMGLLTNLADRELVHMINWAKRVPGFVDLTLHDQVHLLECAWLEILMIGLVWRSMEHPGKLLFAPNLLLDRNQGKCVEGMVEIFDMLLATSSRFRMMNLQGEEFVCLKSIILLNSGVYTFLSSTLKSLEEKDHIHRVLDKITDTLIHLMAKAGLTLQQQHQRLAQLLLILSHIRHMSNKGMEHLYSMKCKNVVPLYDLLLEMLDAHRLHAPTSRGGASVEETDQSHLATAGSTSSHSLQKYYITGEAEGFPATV
Active and inactive are the calls of the source. How the source made its calls: active means hit-call score of the fitted dose curve at least 0.9, where 1 is the maximum; inactive means score below 0.9.
PARAMETER_MEASURED: outcome

Example entries and their recorded answers appear below.
CS(=O)(=O)OCCCCOS(C)(=O)=O ... inactive
CC(C)CCCCCCc1ccc(OCCOCCO)cc1 ... inactive
CC(C)NCC(O)COc1ccc(CC(N)=O)cc1 (stereo not given) ... inactive
CCCCCCCCCCCC(=O)OCC(O)CO (stereo not given) ... inactive

Kindly consider the entry below.
Challenge: Enter outcome (test system Estrogen receptor (Homo sapiens) (UniProt P03372)) for O=C(Nc1ccc2c(O)c(N=Nc3ccc(N=Nc4ccc(S(=O)(=O)O)cc4)cc3)c(S(=O)(=O)O)cc2c1)c1ccccc1
Response given: inactive

###

test: CPHEA_Stoker_NIS_Cytotoxicity: Cytotoxicity Assessment for CPHEA's Radioactive Iodide Uptake (RAIU) Assay for Sodium/Iodide Symporter (NIS) Inhibition, Stoker and Laws Labs (AID 2283897)
Activity calls are given as the source filed them. Rule for the calls: active = hit-call score of the fitted dose curve at least 0.9, where 1 is the maximum; inconclusive = response in the unintended direction; inactive = score below 0.9.
Select the matching outcome among T for active, F for inactive

The examples below pair each entry with its known result.
c1ccc(Oc2ccccc2)cc1 ... F
OC[C@H]1O[C@@H]2O[C@H]3[C@H](O)[C@@H](O)[C@@H](O[C@H]4[C@H](O)[C@@H](O)[C@@H](O[C@H]5[C@H](O)[C@@H](O)[C@@H](O[C@H]6[C@H](O)[C@@H](O)[C@@H](O[C@H]7[C@H](O)[C@@H](O)[C@@H](O[C@H]8[C@H](O)[C@@H](O)[C@@H](O[C@H]9[C@H](O)[C@@H](O)[C@@H](O[C@H]1[C@H](O)[C@H]2O)O[C@@H]9CO)O[C@@H]8CO)O[C@@H]7CO)O[C@@H]6CO)O[C@@H]5CO)O[C@@H]4CO)O[C@@H]3CO ... F
CCCCCCC(=O)c1ccccc1 ... F
CCCCCCCCc1ccc(S(=O)(=O)O)cc1 ... F
C=C1CC[C@H](O)C/C1=C/C=C1\CCC[C@]2(C)[C@@H]([C@H](C)/C=C/[C@H](C)C(C)C)CC[C@@H]12 ... F
CCCCC(CC)COC(=O)c1ccc(O)cc1 (configuration not stated) ... T
COc1ccc(N=Nc2cc(C)c(N=Nc3ccc(S(=O)(=O)O)cc3)cc2OC)cc1 ... F
O=[N+]([O-])c1ccc(O)cc1C(F)(F)F ... F

Challenge: Entry CCCCCCCCC=CCCCCCCCC1=NCCN1CCO : call = ?
Response given: F

Challenge: Entry CCCCCCCCSCCO : call = ?
Response given: F

Challenge: Entry C[C@H]1O[C@@H](O[C@H]2[C@@H](O)C[C@H](O[C@H]3[C@@H](O)C[C@H](O[C@H]4CC[C@@]5(C)[C@H](CC[C@@H]6[C@@H]5C[C@@H](O)[C@]5(C)[C@@H](C7=CC(=O)OC7)CC[C@]65O)C4)O[C@@H]3C)O[C@@H]2C)C[C@H](O)[C@@H]1O : call = ?
Response given: F
